Overview of reported median [+ligand]/median [w/o ligand]*100 across a group of binders:
target: human FLT3 on transfected CHO cells (human) (UniProt P36888); assay: FACS, scFv on CHO-human FLT3 cells pre-incubated with FLT3 ligand (competitor)

As a guide, the following entries are already answered.
| Binder | median [+ligand]/median [w/o ligand]*100 |
| --- | --- |
| FL-52 (scFv) scFv: QVTLKESGPTLVKPTETLTLTCTFSGFSLRYARMGVSWIRQPPGKCLEWLAHIFSNDEKSYSTSLKSRLTISKDTSKSQVVLTLTNMDPVDTATYFCARMPEYSSGWSGAFDIWGQGTMVTVSSGGGGSGGGGSGGGGSDIQMTQSPSSLSASVGDRVTITCRASQDIRNDLAWYQQKPGKAPKRLIYAASSLQSGVPSRFSGSGSGTEFTLTISSLQPEDFATYYCLQHNSYPLTFGCGTKLEIK | > 75% |
| FL-49 (scFv) scFv: QVTLKESGPTLVKPTETLTLTCTVSGFSLNNARMGVSWIRQPPGKCLEWLAHIFSNDEKSYSTSLKNRLTISKDSSKTQVVLTMTNVDPVDTATYYCARIVGYGTGWFGYFDYWGQGTQVTVSSGGGGSGGGGSGGGGSDIQMTQSPSSLSASVGDRVTITCRASQDIRTDLAWYQQKPGKAPKRLIYAASSLQSGVPSRFSGSGSGTEFTLTISSLQPEDFATYYCLQHNRYPLTFGCGTKVDIK | > 75% |

Asked: Given FL-50 (scFv) scFv: QVTLKESGPTLVKPTETLTLTCTVSGFSLSNARMGVSWIRQPPGKCLEWLAHIFSNDEKSYSTSLKSRLTISKDTSKSQVVLTMTNMDPVDTATYYCARIPGYGGNFYYHYYGMDVWGQGTTVTVSSGGGGSGGGGSGGGGSDIQMTQSPSSLSASVGDRVTITCRASQGIRNDLAWYQQKPGKAPKRLIYAASTVQSGVPSRFSGSGSGTEFALTISSLQPEDFATYYCLQHNSFPWTFGCGTKVDIK , respond with its median [+ligand]/median [w/o ligand]*100.
Given back: > 75%

Origin of values: patent US20230272113A1
